Biological target: T1, human Protein S (UniProt P07225 42-676)
T1 chain: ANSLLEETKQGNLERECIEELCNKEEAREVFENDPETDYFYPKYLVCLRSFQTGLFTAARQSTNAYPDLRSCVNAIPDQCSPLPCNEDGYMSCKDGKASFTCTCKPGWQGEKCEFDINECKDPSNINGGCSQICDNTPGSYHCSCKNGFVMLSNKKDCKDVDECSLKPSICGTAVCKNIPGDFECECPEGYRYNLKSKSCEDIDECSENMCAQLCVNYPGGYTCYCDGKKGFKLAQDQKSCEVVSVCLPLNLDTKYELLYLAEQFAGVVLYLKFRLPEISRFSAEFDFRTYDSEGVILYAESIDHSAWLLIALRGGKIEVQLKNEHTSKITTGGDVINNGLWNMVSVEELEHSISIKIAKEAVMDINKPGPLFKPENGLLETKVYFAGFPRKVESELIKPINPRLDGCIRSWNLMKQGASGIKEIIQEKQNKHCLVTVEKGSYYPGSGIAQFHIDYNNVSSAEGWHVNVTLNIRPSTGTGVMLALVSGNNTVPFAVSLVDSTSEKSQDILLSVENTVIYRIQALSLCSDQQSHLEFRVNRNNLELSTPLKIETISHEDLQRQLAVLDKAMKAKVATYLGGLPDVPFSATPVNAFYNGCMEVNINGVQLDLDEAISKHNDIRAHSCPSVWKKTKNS
Assay: LANCE competition
readout-name: log10 of IC50 (log10 of the value in nM)
Use the decimal logarithm of IC50 (nM).

Q: What measured log10 of IC50 goes with Ac-TGHVSAGWYDYNLDHYREFT-NH2 [JBS2582] ?
A: 0.87

Q: Lookup Ac-TGLVSAGWYDYNFDTYREFT-NH2 [JBS2885]
A: 0.64

Q: Lookup Ac-TGLVSAGWYDNNFDHYREFT-NH2 [JBS2845]
A: 0.92

Q: Lookup Ac-TGLVSAGWYDYNFDEYREFT-NH2 [JBS2750]
A: 0.56

Q: Lookup Ac-SGHVSAGWYDYNFDHYREFT-NH2 [JBS2648]
A: 1.27

Q: Lookup Ac-TGHVSAGWYDYNFDSYREFT-NH2 [JBS2661]
A: 0.89

Q: Lookup Ac-TGHVSAGWYDYNFDHYRE-NH2 [JBS2678]
A: 3.26
